# system: FLT3 (Homo sapiens)
# testMethodNotes: In vitro kinase activity assay (PKLight), FLT3
# cond: recombinant FLT3, poly(Glu,Tyr) substrate, 4 μM ATP
pIC50: −log10 of the molar value.
# reported pIC50; entries follow

- compoundStructure: "CN1C/C=C/CCOc2cccc(c2)-c2ccnc(n2)Nc2cc(ccn2)C1"
  system: "FLT3 (Homo sapiens)"
  pIC50: "< 5.30"

Then there is this molecule:
Look up pIC50: CN1C/C=C/CCOc2cccc(c2)-c2ccnc(n2)Nc2cccc(c2)C1 ≥ 6.00

* * *

# system: FLT3 (Homo sapiens, UniProt P36888)
# Sequence (P36888 27-993): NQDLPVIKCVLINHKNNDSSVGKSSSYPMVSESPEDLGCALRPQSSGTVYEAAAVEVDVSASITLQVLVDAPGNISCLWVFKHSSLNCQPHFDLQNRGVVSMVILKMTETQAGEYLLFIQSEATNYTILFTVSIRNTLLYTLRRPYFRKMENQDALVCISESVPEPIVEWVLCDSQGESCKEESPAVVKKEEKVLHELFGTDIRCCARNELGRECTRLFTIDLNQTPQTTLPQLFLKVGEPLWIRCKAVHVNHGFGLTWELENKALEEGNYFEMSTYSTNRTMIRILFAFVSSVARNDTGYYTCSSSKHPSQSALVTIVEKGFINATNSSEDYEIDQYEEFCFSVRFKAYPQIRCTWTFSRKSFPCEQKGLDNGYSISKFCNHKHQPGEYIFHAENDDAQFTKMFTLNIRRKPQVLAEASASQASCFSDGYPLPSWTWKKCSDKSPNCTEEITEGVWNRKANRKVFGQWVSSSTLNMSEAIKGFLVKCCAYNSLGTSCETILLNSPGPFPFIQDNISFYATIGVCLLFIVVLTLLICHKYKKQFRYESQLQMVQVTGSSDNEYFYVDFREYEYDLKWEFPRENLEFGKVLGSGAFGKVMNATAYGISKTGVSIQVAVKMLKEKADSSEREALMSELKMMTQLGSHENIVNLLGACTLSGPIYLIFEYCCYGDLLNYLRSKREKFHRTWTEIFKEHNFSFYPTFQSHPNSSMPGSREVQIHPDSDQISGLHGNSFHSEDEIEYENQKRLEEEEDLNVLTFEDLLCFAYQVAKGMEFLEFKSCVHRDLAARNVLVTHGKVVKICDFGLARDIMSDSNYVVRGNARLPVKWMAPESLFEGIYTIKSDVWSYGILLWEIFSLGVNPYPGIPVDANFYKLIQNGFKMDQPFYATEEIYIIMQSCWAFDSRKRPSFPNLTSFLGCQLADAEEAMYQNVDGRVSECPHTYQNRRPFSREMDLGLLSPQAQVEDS
# testMethodNotes: In vitro kinase activity assay (PKLight), FLT3
# cond: recombinant FLT3, poly(Glu,Tyr) substrate, 4 μM ATP
pIC50: −log10 of the molar value.
measureName: pIC50

- compoundStructure: "C1=C/CNCc2cccc(c2)Nc2nccc(n2)-c2cccc(c2)OCC/1"
  pIC50: "≥ 6.00"

Look up pIC50: CN1C/C=C/CCOc2cccc(c2)-c2ccnc(n2)Nc2ccc(OCCn3cncn3)c(c2)C1 ≥ 6.00

Same question, CN1C/C=C/CCOc2cc(F)cc(c2)-c2ccnc(n2)Nc2ccc(OCCN3CCCC3)c(c2)C1 this time ≥ 6.00

Same question, CCN(CC)CCOc1ccc2cc1CN(C)C/C=C/CCOc1cccc(c1)-c1ccnc(n1)N2 this time ≥ 6.00

Same question, O=C1CC/C=C/COCc2cccc(c2)Nc2nccc(n2)-c2cccc(c2)N1 this time < 5.30
